tested on: MDA-MB-231; assay: cell viability relative to vehicle unstimulated control (fraction); higher = more viable cells; details: pre-treatment time: 18 h then 24 h IFNg/TNF
Reported cell viability values follow for various molecules
Give a plain numeric answer without units written out.

INSERT INTO measurements (molecule, tgt, propertyname, observed) VALUES
  ('CC(C)(O[C@@H]1O[C@H](CO)[C@@H](O)[C@H](O)[C@H]1O)[C@@H]1CC[C@](O)(CO)[C@H]2CC(=O)[C@@](C)(O)[C@@H]2C1 [Atractyloside A] (compound dose: 10 uM)', 'MDA-MB-231', 'cell viability', 0.986),
  ('COc1ccc(C[C@H]2COC(=O)[C@]2(O)Cc2ccc(O[C@@H]3O[C@H](CO)[C@@H](O)[C@H](O)[C@H]3O)c(OC)c2)cc1OC [Tracheloside] (compound dose: 10 uM)', 'MDA-MB-231', 'cell viability', 0.883),
  ('C=C[C@@](C)(/C=C/c1ccc(O)cc1)CCC=C(C)C [Bakuchiol] (compound dose: 10 uM)', 'MDA-MB-231', 'cell viability', 0.95),
  ('CC(=O)O[C@H]1CC(=O)OC(C)(C)[C@@H]2CC(=O)[C@]3(C)[C@H](CC[C@@]4(C)[C@@H](c5ccoc5)OC(=O)[C@H]5O[C@]543)[C@@]12C [Nomilin] (compound dose: 10 uM)', 'MDA-MB-231', 'cell viability', 1.03);

With those in mind, consider the next molecule.
[in] State the recorded cell viability for this entry: C/C=C1\C(=O)C[C@H]2[C@@H]3CCC4=CC(=O)CC[C@]4(C)[C@H]3CC[C@]12C [Guggulsterone] (compound dose: 10 uM)
[out] 0.938

====

system: MDA-MB-231; assay: kynurenine production, fold change vs DMSO IFNg/TNF control; higher = more kynurenine produced (less inhibition); conditions: pre-treatment time: 18 h then 24 h IFNg/TNF
propertyName: kynurenine production

These solved cases illustrate the format of a correct answer.
INSERT INTO results (compound, observed) VALUES
  ('CCCCCC(=O)O[C@@H]1[C@@H](C)[C@@]2(O)[C@@H](C=C(CO)C[C@]3(O)C(=O)C(C)=C[C@@H]23)[C@@H]2C(C)(C)[C@]12OC(=O)CCCCC [Phorbol 12, 13-Dihexanoate] (compound dose: 10 uM)', 0.896),
  ('COc1cc(C(C)=O)cc(OC)c1O [Acetosyringone] (compound dose: 10 uM)', 0.885),
  ('C[C@@H]1CC[C@]2(C)CC[C@]3(C)C(=CC(=O)C4[C@@]5(C)CC[C@@H](O)[C@](C)(C(=O)O)C5CC[C@]43C)C2[C@H]1C (stereo partly drawn) [11-Keto-beta-boswellic acid] (compound dose: 10 uM)', 0.94),
  ('O[C@H]1[C@H]2c3cc4c(cc3CN3CC[C@H](C[C@@H]1O)[C@H]23)OCO4 [Dihydrolycorine] (compound dose: 10 uM)', 0.723),
  ('C[C@@H]1O[C@@H](O[C@H]2[C@H](O)[C@@H](O)[C@H](OC[C@H]3O[C@@H](OC(=O)[C@]45CCC(C)(C)C[C@H]4C4=CC[C@@H]6[C@@]7(C)CC[C@H](O[C@@H]8OC[C@H](O)[C@H](O)[C@H]8O)[C@@](C)(CO)[C@@H]7CC[C@@]6(C)[C@]4(C)CC5)[C@H](O)[C@@H](O)[C@@H]3O)O[C@@H]2CO)[C@H](O)[C@H](O)[C@H]1O [Cauloside D] (compound dose: 10 uM)', 1.23);

[in] What kynurenine production appears in the records for this compound with MDA-MB-231? CC(=O)OCC1=CO[C@@H](OC(=O)CC(C)C)[C@H]2C1=C[C@H](OC(=O)CC(C)(C)OC(C)=O)[C@]21CO1 [Acevaltrate] (compound dose: 10 uM)
[out] 0.171

[in] Do the same for C=C1C(=O)O[C@@H]2/C=C(\C)C[C@@H]3C=C(C[C@H](OC(=O)/C(C)=C\C)[C@@H]12)C(=O)O3 [Scabertopin] (compound dose: 10 uM) please
[out] 0.182
